- tested system: STING protein (Homo sapiens (Human), UniProt Q86WV6, H232R)
- Sequence (Q86WV6 whole entry H232R): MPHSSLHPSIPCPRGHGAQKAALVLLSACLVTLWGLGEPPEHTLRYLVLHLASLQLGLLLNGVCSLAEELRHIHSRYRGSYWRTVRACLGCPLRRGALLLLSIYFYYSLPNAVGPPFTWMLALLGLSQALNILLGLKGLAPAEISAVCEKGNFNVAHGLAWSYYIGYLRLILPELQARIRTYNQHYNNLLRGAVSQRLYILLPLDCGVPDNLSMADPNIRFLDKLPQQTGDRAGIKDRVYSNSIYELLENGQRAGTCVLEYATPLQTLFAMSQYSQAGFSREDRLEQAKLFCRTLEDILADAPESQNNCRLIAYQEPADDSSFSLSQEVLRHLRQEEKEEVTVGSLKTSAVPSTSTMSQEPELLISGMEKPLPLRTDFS
- assay details: Cell based reporter assay of IRF activation (IRF-luciferase), THP1-dual-KI R232
- cond: read-out: THP1-dual-KI R232_IRF(Luciferase)_Activity Maximum measured (%)
assay metric: Emax

Lookup: Provide Emax value for the following compound: "O=C(O)Cn1c2ccc(-c3ccccc3)cc2c(=O)c2ccc(Cl)c(Cl)c21"
Found: < 5%

Lookup: Find the measured Emax of "C[C@H]1CCCN1c1ccc2c(=O)c3ccc(Cl)c(Br)c3n(CC(=O)O)c2c1" and report it.
Found: 5 to 25%

Lookup: Quick one: give measured Emax for "O=C(O)Cn1c2cc(NCCN3CCc4ccccc43)ccc2c(=O)c2ccc(Cl)c(Cl)c21"
Found: 5 to 25%

Lookup: Consider the compound "O=C(O)Cn1c2ccccc2c(=O)c2ccc(Cl)c(-c3cccnc3)c21" . State its measured Emax.
Found: < 5%

Lookup: Identify measured Emax corresponding to "O=C(O)Cn1c2cc(Nc3ccc(F)cc3)ccc2c(=O)c2ccc(Cl)c(Cl)c21"
Found: > 50%

Lookup: Give the reported Emax for this compound. "COc1c(Cl)ccc2c(=O)c3ccc(Nc4ccccc4)cc3n(CC(=O)O)c12"
Found: > 50%

Lookup: Read the entry "COc1c(Cl)ccc2c(=O)c3ccc(Nc4ccc(OC(F)(F)F)cc4)cc3n(CC(=O)O)c12" and write its reported Emax.
Found: > 50%

Lookup: // Input: "COc1c(Cl)ccc2c(=O)c3ccc(C)cc3n(CC(=O)NC#N)c12" . Output its Emax only.
Found: 25 to 50%

Lookup: Identify Emax associated with the compound "COc1c(Cl)ccc2c(=O)c3ccc(-c4ccc(O)cc4)cc3n(CC(=O)O)c12"
Found: > 50%

Lookup: Hello, please tell me recorded Emax for this one: "CCOc1c(Cl)ccc2c(=O)c3ccc(C)cc3n(CC(=O)OC)c12"
Found: 5 to 25%

Lookup: Hello, please tell me recorded Emax for this one: "CC(C)Oc1c(Cl)ccc2c(=O)c3ccc(C(C)(C)C)cc3n(CC(=O)O)c12"
Found: > 50%

Lookup: Please report the measured Emax for "CC(C)c1ccc2c(=O)c3ccc(Cl)c(C(F)(F)F)c3n(CC(=O)O)c2c1"
Found: < 5%

Lookup: Determine from records and report Emax for "O=C(O)Cn1c2cc(-c3ccco3)ccc2c(=O)c2ccc(Cl)c(Cl)c21"
Found: 25 to 50%

Lookup: Identify the reported Emax for the following entry. "Cc1cc2c(cc1F)c(=O)c1ccc(Cl)c(Cl)c1n2CC(=O)O"
Found: < 5%

Lookup: Give Emax for "COc1c(Cl)ccc2c(=O)c3ccc(C(C)C)cc3n(CC(=O)NS(=O)(=O)C(F)(F)F)c12"
Found: < 5%

Lookup: Return Emax (reported value) for this compound: "O=C(O)Cn1c2cc(Nc3cnccn3)ccc2c(=O)c2ccc(Cl)c(Cl)c21"
Found: > 50%

Lookup: Give the reported value of Emax for this record: "CSc1c(Cl)ccc2c(=O)c3ccc(Nc4cnccn4)cc3n(CC(=O)O)c12"
Found: < 5%

====

I'd be grateful if you could share measured pIC50 for these entries.
- tested system: hSTING-WT (Homo sapiens (Human), UniProt Q86WV6, H232R)
- Sequence (Q86WV6 140-379 H232R): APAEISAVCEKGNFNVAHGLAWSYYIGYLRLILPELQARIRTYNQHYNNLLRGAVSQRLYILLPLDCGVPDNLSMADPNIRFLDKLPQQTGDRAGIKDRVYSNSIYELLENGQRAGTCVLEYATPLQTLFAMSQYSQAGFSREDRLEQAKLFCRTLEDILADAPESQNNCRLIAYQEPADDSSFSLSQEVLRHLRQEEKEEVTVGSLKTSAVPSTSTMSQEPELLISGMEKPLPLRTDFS
- assay details: Radiometric filtration binding competition assay, hSTING-WT
pIC50: −log10 of the molar value.

Lookup: Identify measured pIC50 corresponding to "CN(C)c1c(Cl)ccc2c(=O)c3ccc(C(C)(C)C)cc3n(CC(=O)O)c12"
Found: > 4.70

Lookup: // fetch pIC50 given entry "COc1c(Cl)ccc2c(=O)c3ccc(Nc4ccccc4Cl)cc3n(CC(=O)O)c12"
Found: > 4.70

Lookup: Indicate the recorded pIC50 value for this compound: "CC(C)c1ccc2c(=O)c3ccc(Cl)c(Br)c3n(CC(=O)NS(C)(=O)=O)c2c1"
Found: 3.52 to 4.00

Lookup: Provide measured pIC50 value, entry: "O=C(O)Cn1c2cc(Cl)ccc2c(=O)c2ccc(Nc3ccccc3)cc21"
Found: 4.00 to 4.70

Data provenance: patent US11414387B2
